System: LG0567-F671-PDC KRAS tumor spheroid viability;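 further: drug exposure lasted seven days after spheroids formed for three days; 100% = DMSO vehicle control viability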
Experiment: Anticancer human tumor LG0567-F671-PDC patient-derived lung adenocarcinoma cell line growth inhibition [KRAS2]
Settings: second compound 0.316 µM; first compound 0.001 µM; stronger effect = lower value; spheroids with HUVEC and MSC
Give viability, T/C for every item shown.
Reply with just the number (in %).

The recorded viability, T/C for Cn1ncnc1[C@H]1c2n[nH]c(=O)c3cc(F)cc(c23)N[C@@H]1c1ccc(F)cc1 + COc1cc2nc(C)nc(NC(C)c3cc(N)cc(C(F)(F)F)c3)c2cc1OC1CCOC1 is 74.9

The recorded viability, T/C for CN(C)C/C=C/C(=O)Nc1cc2c(Nc3ccc(F)c(Cl)c3)ncnc2cc1O[C@H]1CCOC1 + CC1OCC2(CCN(c3cnc(Sc4ccnc(N)c4Cl)c(N)n3)CC2)C1N is 40.5

The recorded viability, T/C for CN(C)C/C=C/C(=O)Nc1cc2c(Nc3ccc(F)c(Cl)c3)ncnc2cc1O[C@H]1CCOC1 + COc1cc2nc(C)nc(NC(C)c3cc(N)cc(C(F)(F)F)c3)c2cc1OC1CCOC1 is 60.9

The recorded viability, T/C for CN(C)C/C=C/C(=O)Nc1cc2c(Nc3ccc(F)c(Cl)c3)ncnc2cc1O[C@H]1CCOC1 + C=CC(=O)N1CCN(c2nc(OCC3CCCN3C)nc3c2CCN(c2cccc4cccc(C)c24)C3)CC1CC#N is 28.8

The recorded viability, T/C for Cn1ncnc1[C@H]1c2n[nH]c(=O)c3cc(F)cc(c23)N[C@@H]1c1ccc(F)cc1 + C=CC(=O)N1CCN(c2nc(=O)n(-c3c(C)ccnc3C(C)C)c3nc(-c4c(O)cccc4F)c(F)cc23)C(C)C1 is 26.2

The recorded viability, T/C for CC(=O)Nc1cccc(-n2c(=O)n(C3CC3)c(=O)c3c(Nc4ccc(I)cc4F)n(C)c(=O)c(C)c32)c1 + COc1cc2nc(C)nc(NC(C)c3cc(N)cc(C(F)(F)F)c3)c2cc1OC1CCOC1 is 36.3

The recorded viability, T/C for CC(=O)Nc1cccc(-n2c(=O)n(C3CC3)c(=O)c3c(Nc4ccc(I)cc4F)n(C)c(=O)c(C)c32)c1 + CC1OCC2(CCN(c3cnc(Sc4ccnc(N)c4Cl)c(N)n3)CC2)C1N is 25.6

The recorded viability, T/C for CC(C)n1nc(-c2ccc3oc(N)nc3c2)c2c(N)ncnc21 + COc1cc2nc(C)nc(NC(C)c3cc(N)cc(C(F)(F)F)c3)c2cc1OC1CCOC1 is 73.6

The recorded viability, T/C for Cn1ncnc1[C@H]1c2n[nH]c(=O)c3cc(F)cc(c23)N[C@@H]1c1ccc(F)cc1 + C=CC(=O)N1CCN(c2nc(OCC3CCCN3C)nc3c2CCN(c2cccc4cccc(C)c24)C3)CC1CC#N is 35.5

The measured values listed here are drawn from PubChem BioAssay AID1963856.
